- MEASURED ON: Glucocorticoid receptor (Homo sapiens)
- ASSAY PROCEDURE: ATG_GR_TRANS: Attagene TRANS-FACTORIAL HepG2 Assay for human Glucocorticoid Receptor (GR) (AID 2282978);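 further: activators score as hits since higher reporter transcript over DMSO is fitted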
- SETTINGS: HepG2 Attagene TRANS GR reporter, mRNA transcription
Records with an inconclusive call do not appear. The source made the active and inactive calls. How the source made its calls: active means hit-call score of the fitted dose curve at least 0.9, where 1 is the maximum; inconclusive means response in the unintended direction; inactive means score below 0.9.
Outcome codes: true for active, false for inactive

COMPOUND	LABEL CLASS
CCC(O)=C1C(=O)CC(C(=O)O)CC1=O (stereo not given)	false
Oc1ccc(C(c2ccc(O)cc2)C(Cl)(Cl)Cl)cc1	false
CCOC(=O)[C@H](C)Oc1ccc(Oc2nc3ccc(Cl)cc3o2)cc1	false
CN(C)C(=O)Nc1ccc(Cl)c(Cl)c1	false
CCCCC(CC)CN1C(=O)C2C3C=CC(C3)C2C1=O (stereo not given)	false
CCCCC(CC)COC(=O)c1ccccc1C(=O)O (stereo not given)	false
C[C@]12CC[C@@H]3c4ccc(O)cc4C[C@@H](CCCCCCCCCS(=O)CCCC(F)(F)C(F)(F)F)[C@H]3[C@@H]1CC[C@@H]2O (stereo not given in full)	false
COC(=O)c1c(Cl)nn(C)c1S(=O)(=O)NC(=O)Nc1nc(OC)cc(OC)n1	false
CC1(C)C(C=C(Cl)Cl)C1C(=O)OCc1cccc(Oc2ccccc2)c1 (stereo not given)	false
C[C@]12C[C@H](O)[C@H]3[C@@H](CCC4=CC(=O)CC[C@@]43C)[C@@H]1CC[C@@H]2C(=O)CO	true
